Source listed as patent US20120172295A1.

# measurement.target: GLP-1 receptor (UniProt P43220 24-463, limits assumed)
# test.summary: cell-based or functional assay
Groups on a side chain read outwards from the residue. No end group written: not given here. *: point of attachment. Stearoyl = CCCCCCCCCCCCCCCCCC(=O)*; Palmitoyl = CCCCCCCCCCCCCCCC(=O)*

binder: HSQGTFTSDK(Stearoyl)SKYLDERRAKDFVQWLMNT-NH2 [E16 K20-glucagon-NH2 with K10-C18]
EC50 (pM): 30

binder: HSQGTFTSDK([Trp-Palmitoyl])SKYLDERRAKDFVQWLMNT-NH2 [E16 K20-glucagon-NH2 with K10-W-C16]
EC50 (pM): 50

binder: HSQGTFTSDYSKYLDERRAKDFVQWLMNT-NH2 [E16 K20-glucagon-NH2]
EC50 (pM): 210

binder: HSQGTFTSDK(Palmitoyl)SKYLDERRAKDFVQWLMNT-NH2 [E16 K20-glucagon-NH2 with K10-C16]
EC50 (pM): 90
